IC50 overview
# TESTED ON: AKT1 WT (Homo sapiens)
# Sequence (P31749 whole entry): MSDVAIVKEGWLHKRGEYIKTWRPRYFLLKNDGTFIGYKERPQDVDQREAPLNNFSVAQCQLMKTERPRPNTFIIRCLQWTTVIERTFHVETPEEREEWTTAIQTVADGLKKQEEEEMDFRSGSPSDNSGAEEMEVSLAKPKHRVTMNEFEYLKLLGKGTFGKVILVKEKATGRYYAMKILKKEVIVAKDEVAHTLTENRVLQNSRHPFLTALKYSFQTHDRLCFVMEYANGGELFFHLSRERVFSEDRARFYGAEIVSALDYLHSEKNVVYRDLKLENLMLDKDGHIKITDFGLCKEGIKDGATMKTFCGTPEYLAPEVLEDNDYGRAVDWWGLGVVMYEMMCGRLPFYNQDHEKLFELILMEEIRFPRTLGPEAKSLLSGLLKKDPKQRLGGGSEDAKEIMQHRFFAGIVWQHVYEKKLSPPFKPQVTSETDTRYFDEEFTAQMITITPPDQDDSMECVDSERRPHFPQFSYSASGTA
# TEST NAME: Live cell target engagement by NanoBRET competitive probe displacement, AKT1 WT
# CONDITION PARAMETERS: transfected HEK293 cells, 2 h at 37° C., read-out: AKT1 WT IC50: GeoMean IC50

Recorded IC50, per entry:
N#Cc1ccc2nc(-c3cccnc3N)n(-c3ccc4c(c3)CC[C@@H]4NC(=O)c3ccc(O)c(C=O)c3)c2n1 [Example 79] ... 100 to 2000 nM
CS(=O)(=O)Nc1cc(F)c(C(=O)N[C@H]2CCc3cc(-n4c(-c5cccnc5N)nc5ccc(-n6cccn6)nc54)ccc32)cc1C=O [Example 217] ... ≥ 2000 nM
Nc1ncccc1-c1nc2ccc(NC3CC3)nc2n1-c1ccc2c(c1)CC[C@@H]2NC(=O)c1ccc(O)c(C=O)c1 [Example 87] ... 100 to 2000 nM
Cn1ccc(-c2ccc3nc(-c4cccnc4N)n(-c4ccc5c(c4)CC[C@@H]5NC(=O)c4ccc(O)c(C=O)c4)c3n2)n1 [Example 59] ... 10 to 100 nM
Nc1ncccc1-c1nc2ccc(-c3cnccn3)nc2n1-c1ccc2c(c1)CC[C@@H]2NC(=O)c1cc(C=O)c(O)c(F)c1F [Example 103] ... 10 to 100 nM

So what's the measured IC50 for this one? Cc1cc(-n2ccc(F)n2)nc2c1nc(-c1cccnc1N)n2-c1ccc2c(c1)CC[C@@H]2NC(=O)c1cc(C=O)c(O)c(F)c1F [Example 199] < 10 nM

So what's the measured IC50 for this one? COc1c(O)c(C=O)cc(C(=O)N[C@H]2CCc3cc(-n4c(-c5cccnc5N)nc5ccc(-n6cccn6)nc54)ccc32)c1F [Example 214] 10 to 100 nM

So what's the measured IC50 for this one? Nc1ncccc1-c1nc2ccc(-c3nccnc3F)nc2n1-c1ccc2c(c1)CC[C@@H]2NC(=O)c1ccc(O)c(C=O)c1 [Example 109] 100 to 2000 nM

So what's the measured IC50 for this one? Nc1ncccc1-c1nc2ccc(-c3ccccc3)nc2n1-c1ccc2c(c1)CC[C@@H]2Nc1nccc2c(C=O)c(O)ccc12 [Example 39] 100 to 2000 nM

So what's the measured IC50 for this one? Nc1ncccc1-c1nc2ccc(-c3ccccc3)nc2n1-c1ccc2c(c1)CC[C@@H]2NC(=O)c1cc(C=O)c(O)cc1Cl [Example 34] 10 to 100 nM

So what's the measured IC50 for this one? Nc1ncccc1-c1nc2ccc(-c3ccccc3)nc2n1-c1ccc2c(c1)CC[C@@H]2NC(=O)c1cc(C=O)c(O)cn1 [Example 40] 100 to 2000 nM

So what's the measured IC50 for this one? Nc1ncccc1-c1nc2ccc(-n3cc(CO)cn3)nc2n1-c1ccc2c(c1)CC[C@@H]2NC(=O)c1cc(C=O)c(O)cc1F [Example 138] 100 to 2000 nM

So what's the measured IC50 for this one? Nc1ncccc1-c1nc2ccc(-n3cccn3)nc2n1-c1ccc2c(c1)CC[C@@H]2NC(=O)c1cccc(C=O)c1 [Example 142] < 10 nM

So what's the measured IC50 for this one? Cc1ccc2nc(-c3cccnc3N)n(-c3ccc4c(c3)CC[C@@H]4NC(=O)c3cc(F)c(O)c(C=O)c3)c2n1 [Example 44] 100 to 2000 nM

So what's the measured IC50 for this one? Nc1ncccc1-c1nc2ccc(-n3cccn3)nc2n1-c1ccc2c(c1)CC[C@@H]2NC(=O)c1cc(C=O)c(O)c(OC(F)F)c1 [Example 168] 10 to 100 nM

So what's the measured IC50 for this one? Nc1ncccc1-c1nc2c(F)cc(-n3cccn3)nc2n1-c1ccc2c(c1)CC[C@@H]2NC(=O)c1ccc(O)c(C=O)c1 [Example 213] 10 to 100 nM

So what's the measured IC50 for this one? COc1cc(C(=O)N[C@H]2CCc3cc(-n4c(-c5cccnc5N)nc5ccc(-n6cccn6)nc54)ccc32)cc(C=O)c1O [Example 182] 10 to 100 nM

So what's the measured IC50 for this one? Nc1ncccc1-c1nc2ccc(-n3cccn3)nc2n1-c1ccc2c(c1)CC[C@@H]2NC(=O)c1csc(C=O)n1 [Example 143] 100 to 2000 nM
